These data points were gathered from the supplement of paper PMC10567573.

B1: FBXO3 (parent)
chain: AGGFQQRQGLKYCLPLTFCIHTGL

- Variants of: B1
- assay-comment: protein stability index of a GFP-peptide fusion (GPS, HEK-293T) (PSI 1-6); higher = more stable;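 note: lentivirally expressed fusions sorted by FACS into six bins by GFP to DsRed ratio, PSI derived from sequencing read proportions per bin multiplied by bin number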
- recorded-conditions: c terminus: a fixed tail appended
readout-type: protein stability index
Keep it simple and answer with nothing but the number.

*Q* Determine its reported protein stability index: Q5F
*A* 1.98

*Q* For the variant L14Q , give its measured protein stability index value.
*A* 2.57

*Q* # return recorded protein stability index for input G3T
*A* 3.31

*Q* Give the reported value of protein stability index for this record: K11V
*A* 3.35

*Q* Recall and state the measured protein stability index for G3S .
*A* 2.44

*Q* Return value of protein stability index for input L10S , no commentary.
*A* 3.66

*Q* Give protein stability index for G23E
*A* 2.4

*Q* Specify protein stability index for K11H and stop.
*A* 2.35

*Q* Answer with the recorded protein stability index for the variant listed here: R7C
*A* 2.54

*Q* State its protein stability index for this variant: P15W
*A* 1.61

*Q* Identify measured protein stability index corresponding to P15F
*A* 2.95

*Q* Supply recorded protein stability index for G9M here.
*A* 3.48

*Q* Supply recorded protein stability index for Y12E here.
*A* 2.29

*Q* Identify measured protein stability index associated with G23N
*A* 2.97

*Q* Input R7V , output reported protein stability index.
*A* 3.75

*Q* Please give measured protein stability index of the following entry: Q8W
*A* 2.88

*Q* Given the variant Q8D , write its reported protein stability index.
*A* 1.88

*Q* For the variant Q8L , give its measured protein stability index value.
*A* 2.56

*Q* Quick one: give measured protein stability index for L24K
*A* 1.66

*Q* Answer with the recorded protein stability index of G2C only.
*A* 2.6

*Q* Write down protein stability index measured for item A1Q
*A* 2.55

*Q* Report protein stability index for L16W
*A* 2.89

*Q* Give me measured protein stability index, please, for this variant: F4I
*A* 3.07

*Q* Give me measured protein stability index, please, for this variant: T17C
*A* 2.73

*Q* Look up and state reported protein stability index for Q5G
*A* 3.92

*Q* Provide protein stability index value for the following variant: G3C
*A* 2.66

*Q* Indicate the recorded protein stability index value for this variant: G3Q
*A* 4.36

*Q* State its protein stability index for this variant: L16C
*A* 1.66

*Q* State, in one line, measured protein stability index of L24W
*A* 2.7

*Q* For the variant H21E , give its measured protein stability index value.
*A* 1.98

*Q* Query protein stability index for F18P
*A* 1.68

*Q* Look up and report measured protein stability index for this entry: G2L
*A* 2.79

*Q* Note down protein stability index recorded for K11L
*A* 2.21

*Q* Please look at this variant and report its protein stability index: I20M
*A* 2.73

*Q* Please give the documented protein stability index of Q5D
*A* 2.34

*Q* Supply measured protein stability index of G23D in your reply.
*A* 2.58

*Q* Give the reported protein stability index for this variant. A1H
*A* 3.55

*Q* Report protein stability index, nothing else, for this variant: C13P
*A* 3.01

*Q* // Input: C19A . Output its protein stability index only.
*A* 3.9

*Q* Determine its reported protein stability index: L16K
*A* 2.95

*Q* Tell me measured protein stability index for T17N please.
*A* 1.66

*Q* Provide protein stability index value for the following variant: G3A
*A* 1.48

*Q* Determine its reported protein stability index: G23Q
*A* 3.06

*Q* Hello, please tell me recorded protein stability index for this one: Q5S
*A* 3.59

*Q* Provide only the value of recorded protein stability index for A1I
*A* 2

*Q* Return protein stability index (reported value) for this variant: I20G
*A* 2.69
